- System: PC-3 prostate
- procedure-details: NCI tumour cell line growth inhibition, 48 h
Exercise: for every item that follows, state its recorded GI50.

Below: 10 molecules and their reported GI50.
| molecule | tested-target | result |
| --- | --- | --- |
| N#Cc1c(-c2ccc(Cl)cc2)cc(-c2cc(O)ccc2O)nc1N | PC-3 prostate | 1.48 µM |
| CO/N=C(\COc1ccc2c(=O)cc(-c3ccccc3)oc2c1)c1ccc(F)cc1 | PC-3 prostate | 37.9 µM |
| Cc1c(-c2ccc(O)c(O)c2)oc(=O)c2c(O)cc(O)cc12 | PC-3 prostate | 29.5 µM |
| Clc1ccc(CN2COc3c(ccc4cccnc34)C2)cc1Cl | PC-3 prostate | 0.798 µM |
| NCCOc1ncccc1/C=C1\C2C=CC=CC2C2C=CC(F)=CC12 (stereo unspecified) | PC-3 prostate | 1.15 µM |
| COc1ccc(C(=O)/C=C/c2ccc(OCc3ccc(Cl)cc3)cc2)cc1OC | PC-3 prostate | 57.6 µM |
| Cc1ccc(S(=O)(=O)Oc2ccccc2-c2ccccc2)cc1 | PC-3 prostate | 3.52 µM |
| O=C(CCl)Nc1ccc2c(Nc3cc(O)ccc3Cl)ncnc2c1 | PC-3 prostate | 3.02 µM |
| CC12CC[C@@H]3c4cc5c(cc4CC[C@H]3[C@@H]1CCC2O)oc1cc(F)ccc15 (stereo partly specified) | PC-3 prostate | 17.3 µM |
| COc1ccc(C(=O)C2C(C#N)C(C#N)C3C=Cc4ccccc4N32)cc1 (stereo unspecified) | PC-3 prostate | 1.45 µM |

I would be grateful if you could provide GI50 for each of the following entries.
1. CCC(=O)Oc1cc(/C=C/C(=O)O[C@H]2C[C@H]3CN4CCc5c([nH]c6cc(OC)ccc56)[C@@H]4C[C@@H]3[C@@H](C(=O)OC)[C@@H]2OC)ccc1OC
2. CCCCCCCCCCCCCCNc1nc(C(=O)OCC)ncc1-c1ccc(C(F)(F)F)cc1
3. COc1ccc(OC)c(Nc2nc3ccccc3c3c2-c2ccc(OC)cc2C3=O)c1
4. Cn1ccnc1C(=O)/C=C/c1ccc(C(=O)Nc2ccccc2F)cc1
5. NC(=O)[C@@H](CCC(F)(F)F)N(Cc1ccc(-c2ncon2)cc1F)S(=O)(=O)c1ccc(Cl)cc1
6. O=c1c2c3c(sc2n2c(CCl)nnc2n1Cc1ccccc1)CCCC3

1. 15 µM
2. 27.5 µM
3. > 100 µM
4. 1.89 µM
5. 12.6 µM
6. 1.85 µM

----------
Exercise: for every item that follows, state its recorded TGI.
- System: HT29 colon
- procedure-details: NCI tumour cell line growth inhibition, 48 h

| molecule | tested-target | TGI |
| --- | --- | --- |
| CN(C)CC/C(=N\Nc1c(F)c(F)c(F)c(F)c1F)c1ccccc1 | HT29 colon | > 100 µM |
| COc1ccc(C2C(Cl)C(=O)N2NC(=O)c2ccccc2O)cc1 (stereo not drawn) | HT29 colon | > 100 µM |

Now look at this one.
Provide measured TGI value, entry: C[N+](C)(C)CC1CCc2ccccc2C1=O (stereo not drawn)
15.2 µM

----------
Exercise: for every item that follows, state its recorded TGI.
- Tested on: OVCAR-5 ovarian
- procedure-details: NCI tumour cell line growth inhibition, 48 h

Below: 10 molecules and their reported TGI.
| molecule | result |
| --- | --- |
| O=C(O)c1cc2cc(OCc3ccccc3)ccc2[nH]1 | > 100 µM |
| O=C1CS/C(=N/S(=O)(=O)c2ccc(N3N=C4c5ccccc5CC4C3c3cccs3)cc2)N(c2ccccc2)C1 (stereo not given) | > 100 µM |
| O=[N+]([O-])[O][Sn]([O][Sn]([O][N+](=O)[O-])([c]1ccccc1)[c]1ccccc1)([c]1ccccc1)[c]1ccccc1 | > 100 µM |
| CC(C)=NN/C(=N\S(=O)(=O)c1cc2ccccc2s1)Nc1ccc(Cl)cc1 | > 100 µM |
| N#Cc1ccccc1C#C/C=C\C#Cc1cccs1 | > 100 µM |
| C[C@]12CC[C@H](O)C[C@@H]1CC[C@@H]1[C@@H]2CC[C@]2(C)[C@@H](c3cc(C(F)(F)F)n[nH]3)CC[C@@H]12 | 23.5 µM |
| COC(=O)/C(C#N)=C1\CCC(Nc2cccc(C(F)(F)F)c2)N1C (stereo not given) | > 100 µM |
| C[C@H](NS(=O)(=O)c1ccc(NC(=O)c2ccccc2)cc1)C(=O)O | > 100 µM |
| O=c1[nH]cnc2c1cnn2Cc1cn(COCC(O)CO)nn1 (stereo not given) | > 100 µM |
| COc1ccc(C(=O)/C=C/c2ccc(OCc3ccc(Cl)cc3)cc2)cc1OC | > 1000 µM |

I would be grateful if you could provide TGI for each of the following entries.
1. Cc1cc(C)n(-c2nc3ccccc3c(=O)[nH]2)n1
2. Cc1ccnc2[nH]c(-c3cccc4ccccc34)cc(=O)c12
3. O=C1C=Cc2c(-c3ccccc3)oc3cccc1c23
4. C=C1C(=O)C2=C[C@H]1C[C@H](O)C(=O)[C@]1(C)CCCC(C)(C)[C@H]1C[C@H]2O
5. COc1nc(C(=O)O)c(Cl)c(OC)c1Cl
6. C=CCNC(=O)NNC(O)(C(=O)OCC)C(F)(F)F (stereo not given)
7. Cc1c(-c2ccc(O)c(O)c2)oc(=O)c2c(O)cc(O)cc12

1: > 100 µM; 2: > 100 µM; 3: > 96 µM; 4: 3.72 µM; 5: > 100 µM; 6: > 100 µM; 7: > 100 µM

----------
- Test system: HCC-2998 colon
- procedure-details: NCI tumour cell line growth inhibition, 48 h
Exercise: for every item that follows, state its recorded TGI.
Give bare numbers, in µM.

| compound | property-measured | quantitative-readout |
| --- | --- | --- |
| O=C(CC1(O)C(=O)N(Cc2ccccc2)c2ccc(Br)cc21)c1ccc(C(=O)NCC2CCC3(CC2)OOC2(CCCCC2)OO3)cc1 (stereo not given) | TGI | 5.1 |
| O=C(c1c(Cl)cc(Cl)cc1Cl)N(Cc1cccnc1)C(=S)N(Cc1cccnc1)C(=O)c1c(Cl)cc(Cl)cc1Cl | TGI | 7.4 |
| Cc1cc2c(C(C)C)c(O)c(O)c(C=NCC3CCCN4CCCCC34)c2cc1-c1cc2c(C=NCC3CCCN4CCCCC34)c(O)c(O)c(C(C)C)c2cc1C (stereo not given) | TGI | 46.3 |

Now look at this one.
Provide measured TGI value, entry: O=S(=O)(Cc1nc2ccccc2s1)c1nc2ccccc2s1
30.2

----------
- System: SW-620 colon
- procedure-details: NCI tumour cell line growth inhibition, 48 h
property-measured: TGI

Below: 5 molecules and their reported TGI.
| molecule | property-measured | result |
| --- | --- | --- |
| NCc1ccc(O)c(O)c1 | TGI | > 100 µM |
| CC(C)=NN/C(=N\S(=O)(=O)c1cc2ccccc2s1)Nc1ccc(Cl)cc1 | TGI | > 100 µM |
| COc1ccc2c(c1)-c1c(c3cc(OC)ccc3n1CCN1CCOCC1)CC2 | TGI | > 100 µM |
| COc1cc(C2CC(C)(N3CCCC3)Oc3cc4c(cc32)OCO4)cc(OC)c1OC (stereo unspecified) | TGI | 39 µM |
| C=CCCCC(=O)CCC(=O)OCC1O[C@@H](O[C@@H]2C(O)[C@@H](OC(C)=O)C(C)O[C@H]2O[C@H](CC=C)CCCCC)C(O)[C@@H](OC(=O)/C(C)=C/C)[C@@H]1OC(=O)/C=C/c1ccccc1 (stereo partly specified) | TGI | > 50 µM |

I would be grateful if you could provide TGI for each of the following entries.
1. CCOC(=O)CC1c2ccc(O)cc2OC(=O)C1c1ccc(N)cc1 (stereo unspecified)
2. O=C(Cc1nc2cccnc2nc1/C=C(\O)c1ccccc1)c1ccccc1
3. CC1=Nn2c(nnc2-c2ccccc2Cl)NC(C)(C)C1
4. COc1ccc(O)cc1C=O
5. O=C(O)[C@@H]1CCCN1Cc1cc2cc3c(cc2c2cc(OCc4ccccc4)ccc12)OCO3
6. O=C(Nc1ccc(Cl)cc1)Oc1ccc(C(=S)Nc2ccc(Br)cc2)cc1
7. CC(=O)CC1(O)C(=O)c2c(Br)sc(Br)c2C1=O
8. O=C1/C(=C/c2ccc(Cl)cc2)CCC/C1=C\c1ccc(O)c(CN2CCCCC2)c1

> 100 µM
> 100 µM
35.8 µM
> 100 µM
54.6 µM
> 100 µM
55.6 µM
> 100 µM

----------
- Tested on: MDA-MB-435
- procedure-details: NCI tumour cell line growth inhibition, 48 h
property-measured: TGI (µM)
Answers are plain numbers, in µM.

Below: 3 compounds and their reported TGI.
| item-smiles | tested-target | TGI, µM |
| --- | --- | --- |
| O=c1c2c3c(sc2n2c(CCl)nnc2n1Cc1ccccc1)CCCC3 | MDA-MB-435 | 11 |
| Cc1ccnc2[nH]c(-c3cccc4ccccc34)cc(=O)c12 | MDA-MB-435 | 0.000495 |
| COc1cc2c(cc1OCCCCOc1cc3nc(C)nc(Cl)c3cc1OC)N=C[C@@H]1CCCN1C2=O | MDA-MB-435 | 2.97 |

Now look at this one.
Provide measured TGI value, entry: O=c1cc(N2CCOCC2)oc2c(-c3ccc4c(c3)OCCO4)csc12
33.6
